measurementType: melting point

Example entries begin here.
compound	melting point
CC(C(=O)CC(C)(C)Cc1ccc(Cl)cc1)N1C(=O)c2ccccc2C1=O (stereo unspecified)	96 to 98 °C
CCCCSC(=NC(=O)N(CCC)CCC)NC(=O)NC(C)(C)C	92 to 94 °C
CC(C)Cn1nc(OCCCCc2ccc(OC(C)C)cc2Oc2ncc(C(F)(F)F)cc2Cl)cc1CCC(=O)O	122 to 123 °C
COc1ccc(NN=C(Sc2ccc(F)cc2)C(C)=O)cc1	135 to 137 °C
COC(=O)c1cc(Cl)cc2c1OCCN2	60 to 61 °C
COc1ccncc1-c1nc2c(N[C@H]3[C@@H](C(N)=O)[C@@H]4C=C[C@H]3C4)c(Br)cnc2[nH]1	160 °C

Qu. State the recorded melting point for this entry: CC(C)(O)Cn1cnc2c(N)nc3cc(OCc4ccccc4)ccc3c21
Ans. 254 to 257 °C

Qu. State the recorded melting point for this entry: CC(NO)c1ccc2c(c1)Sc1ccccc1O2 (stereo unspecified)
Ans. 64 to 67 °C

Qu. State the recorded melting point for this entry: Nc1cc(Oc2ccc3c(C(=O)Nc4ccc(F)c(C5CC5)c4)cccc3c2)ncn1
Ans. 256 to 257 °C

====

measurementType: melting point

Example entries begin here.
smilesStructure	melting point
CCOC(=O)CNc1ncccc1NC(=O)c1ccccn1	98 to 100 °C
COc1ccc(NC(=O)c2c(Cl)cccc2Cl)c2nccc(Cl)c12	238 to 242 °C

Now examine the next entry.
Qu. State the recorded melting point for this entry: COCCOCCOc1ccc2sc(C(=O)Nc3ccccc3N)cc2c1
Ans. 167 to 168 °C

====

measurementType: melting point

Qu. State the recorded melting point for this entry: CCc1nn(CC2CC2)c2cc(C(=O)Nc3c(Cl)cncc3Cl)ccc12
Ans. 148 to 150 °C

====

measurementType: melting point

compound	melting point
O=C(O)c1ccc(Oc2nccs2)cc1	162 to 163 °C
O=c1c2c(n(-c3ccccc3)c3ncccc13)CCC(O)C2 (configuration not stated)	283 to 286 °C

Qu. State the recorded melting point for this entry: CNC(=O)OCCOc1cc(-n2c(=O)cc(C(F)(F)F)n(C)c2=O)c(F)cc1Cl
Ans. 173 to 175 °C

Qu. State the recorded melting point for this entry: CCOc1c(C=NOC)c(=O)n(C)c(=O)n1C
Ans. 108 to 109 °C

Qu. State the recorded melting point for this entry: Cc1oc(-c2ccc3ccccc3c2)nc1COc1ccc(CCCCCOS(C)(=O)=O)cc1
Ans. 132 to 133 °C

Qu. State the recorded melting point for this entry: CCCCOc1ccc(NC(=O)CNc2ccccc2F)cc1
Ans. 92 to 94 °C

Qu. State the recorded melting point for this entry: CC(C)[C@@H](CO)NS(=O)(=O)c1ccc(Cl)cc1
Ans. 83 to 85 °C

====

Documented melting point across a set of compounds

Example entries begin here.
compound	melting point
CC(=O)N(C)C[C@H]1CN(c2ccc(N3CCC(=CC#N)CC3)c(F)c2)C(=O)O1	128 to 132 °C
CC(COc1ccc(CC2SC(=O)NC2=O)cc1)NCC(O)c1cccc(C(F)(F)F)c1 (stereo not given)	100 to 105 °C
CN(C(=O)C1CCCN(c2ccc([N+](=O)[O-])c(C=C3NC(=O)NC3=O)c2)C1)C1CCCCC1 (stereo not given)	153 to 162 °C
CCOc1cc2c(cc1OCC)[C@@H]1CCCC[C@@H]1N=C2c1ccc(O)nc1 (racemic)	211 to 213 °C
CCCCN(C(=O)c1cnc(N2CCNC2=O)nc1N)c1cccc(C(F)(F)F)c1	234 to 235 °C

Qu. State the recorded melting point for this entry: COC(=O)c1ccc(S(=O)(=O)Cc2c(O)ccc3c2CCCC3=O)cc1
Ans. 132 to 134 °C

Qu. State the recorded melting point for this entry: O=[N+]([O-])c1cnc(Nc2ccccc2F)c([N+](=O)[O-])c1
Ans. 159 to 161 °C

Qu. State the recorded melting point for this entry: CCN(CC)CCC(=O)Nc1cccc2c1C(=O)c1c(NC(=O)CCN(CC)CC)cccc1C2=O
Ans. 166 to 167 °C

Qu. State the recorded melting point for this entry: COc1cc2c(cc1-c1c(C)nn(C)c1C)-c1c(-c3cccs3)c3c(n1CC2)C(=O)N(C(C)C)CCN(C(C)=O)C3
Ans. 178 to 180 °C

Qu. State the recorded melting point for this entry: Cc1nc(-c2cccc3ccccc23)n2cn[nH]c(=O)c12
Ans. 261 to 263 °C

Qu. State the recorded melting point for this entry: CC(=O)CCOc1c(-c2ccc(S(C)(=O)=O)cc2)cnn(-c2ccc(F)cc2)c1=O
Ans. 133 to 136 °C

Origin of values: a melting point compilation (Tetko et al.; mined from patent text by program, amines drawn as free bases though some values may be those of a salt)
